# assay target: Torsin-1A (Homo sapiens) (UniProt O14656)
# Sequence (O14656 whole entry, looked up): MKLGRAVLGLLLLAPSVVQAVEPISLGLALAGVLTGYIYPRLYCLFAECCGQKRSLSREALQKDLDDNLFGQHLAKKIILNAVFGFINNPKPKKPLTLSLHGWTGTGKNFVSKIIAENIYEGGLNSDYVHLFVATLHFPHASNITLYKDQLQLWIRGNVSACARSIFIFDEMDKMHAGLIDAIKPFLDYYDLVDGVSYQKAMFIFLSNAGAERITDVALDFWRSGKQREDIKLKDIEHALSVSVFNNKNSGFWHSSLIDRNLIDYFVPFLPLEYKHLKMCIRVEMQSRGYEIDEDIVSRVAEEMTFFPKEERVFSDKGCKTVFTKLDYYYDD
# measurement description: torsin A mutant lysate binding on microarrays – cell lysate, small-molecule microarray, COS7 lysate, 635/667 nm fluorescence, primary screen (AID 1150);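 note: score pools 667 nm emission and signal to noise measuring lysate protein binding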
# measurement parameters: COS7 hTOR1A mutant lysate, 635 nm fluorescence, higher = more signal
As shown below, each of these compounds has a reported composite z-score value.
Keep the answer to the number alone.

// query composite z-score value for entry `COC(=O)[C@H]1N=C(c2ccc(OCCCO)cc2)O[C@H]1c1ccccc1CN=[N+]=[N-]`
-0.8

====

As shown below, each of these compounds has a reported z-score value.
# assay target: Homeobox protein Hox-A13 (Mus musculus)
# measurement description: disruptors of Hoxa13 oligonucleotide interaction – biochemical, fluorescence polarization, labeled oligonucleotide, primary screen (AID 1185)
# measurement parameters: Hoxa13:DNA binding, 15 min, higher = more signal, called active from +8 up or from −8 down
Keep the answer to the number alone.

Reference set (2 entries):
smiles input: COCCCNC(=O)[C@]1(Cc2ccccc2CN=[N+]=[N-])N=C(c2ccc(OCCCO)cc2)O[C@@H]1c1ccccc1CN=[N+]=[N-]
assay target: Homeobox protein Hox-A13 (Mus musculus)
z-score: -2.43
--
smiles input: COCCCNC(=O)[C@@]1(Cc2ccccc2CN=[N+]=[N-])N=C(c2ccc(OCCCO)cc2)O[C@H]1c1ccccc1N=[N+]=[N-]
assay target: Homeobox protein Hox-A13 (Mus musculus)
z-score: -2.62

The record that follows has no z-score shown yet.
// query z-score value for entry `NC(=O)NCC#Cc1ccc2c(c1)[C@]1(C(=O)N2)[C@H](c2ccc(O)cc2)N2[C@H](c3ccccc3)[C@H](c3ccccc3)OC(=O)[C@H]2[C@@H]1C(=O)NC[C@H](O)c1ccccc1`
-0.93

====

# assay target: Torsin-1A-interacting protein 1 (Homo sapiens)
# measurement description: compound microarray binding of lysate hLAP1 – cell lysate, small-molecule microarray, COS7 lysate, 635/667 nm fluorescence, primary screen (AID 1116)
# measurement parameters: 635 nm fluorescence, higher = more signal
measured property: composite z-score
Keep the answer to the number alone.

compound: CN(C)CCCCCCNC(=O)[C@@H]1C[C@@H]2C(=O)NCC(=O)N2[C@@H]1c1ccc(O)cc1
measured number: 1.96

// query composite z-score value for entry `C=CCN1C(=O)[C@@]2(O[C@@H](CCO)[C@H]([Si](C)(C)c3ccc(OC)cc3)[C@H]2C)c2cc(NC(=O)[C@H](C)O)ccc21`
1.2

Try the compound OCCCC1=CC(c2cccs2)N(Cc2cccc(OC(F)(F)F)c2)CC1 (stereo not drawn)
-0.0673

Try the compound CCCCC(CC)C(O)C1C=CC2C(=O)NC(=O)C2N1Nc1ccccn1 (stereo not drawn)
0.927

Try the compound `NC(=O)NCC#Cc1ccc2c(c1)[C@]1(C(=O)N2)[C@H](c2ccc(O)cc2)N2[C@H](c3ccccc3)[C@H](c3ccccc3)OC(=O)[C@H]2[C@@H]1C(N)=O`
-0.757

Try the compound `CC(C)NC(=O)[C@@H]1c2ccccc2C(=O)N(Cc2cc(C(F)(F)F)cc(C(F)(F)F)c2)[C@H]1c1ccc(CO)cc1`
0.724

Try the compound `COCCCNC(=O)[C@]1(Cc2ccccc2)N=C(c2ccc(OCCCO)cc2)O[C@@H]1c1ccccc1N=[N+]=[N-]`
0.997

Try the compound `COCCCNC(=O)[C@@]1(Cc2ccccc2N=[N+]=[N-])N=C(c2ccc(OCCCO)cc2)O[C@H]1c1ccccc1CN=[N+]=[N-]`
1.54

====

# assay target: Epidermal growth factor receptor (Homo sapiens)
# measurement description: compounds binding epidermal growth factor receptor – biochemical, small-molecule microarray, 635 nm fluorescence, primary screen (AID 1104);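 note: score merges 667 nm emission intensity with spot signal to noise over triplicate slides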
# measurement parameters: EGFR binding, higher = more signal
measured property: composite z-score
Keep the answer to the number alone.

Reference set (2 entries):
molecule: C=CCOC(=O)[C@@H]1[C@H]2C(=O)O[C@H](c3ccccc3)[C@H](c3ccccc3)N2[C@H](c2ccc(OCCOC(=O)[C@@H]3C[C@@H]4C(=O)N5CCC[C@H]5C(=O)N4[C@@H]3c3cccc(OCCO)c3)cc2)[C@@]12C(=O)Nc1ccc(I)cc12
measured number: 0.754
//
molecule: C=CCNC(=O)[C@@H]1[C@H]2C(=O)O[C@H](c3ccccc3)[C@H](c3ccccc3)N2[C@H](c2ccc(O)cc2)[C@@]12C(=O)Nc1ccc(C#CCCO)cc12
measured number: -0.949

// query composite z-score value for entry C=CCC(OC(C)=O)[C@@H]1[C@@H](N(Cc2ccc(-c3ccccc3)cc2)C(=O)Cc2ccc(OC)cc2)c2cc(OCCCO)ccc2N1C(=O)c1ccc(-c2ccccc2)cc1 (stereo not given in full)
-0.332

Try the molecule `O=C1O[C@H](c2ccccc2)[C@H](c2ccccc2)N2[C@H]1[C@@H](C(=O)N1CCCCCCC1)[C@]1(C(=O)Nc3ccccc31)[C@H]2c1ccc(O)cc1`
2

Try the molecule `COCCOC(=O)N1C(=O)[C@@]2(c3cc(C#CCNC(N)=O)ccc31)[C@H](C(=O)N1CCCCCCC1)[C@H]1C(=O)O[C@H](c3ccccc3)[C@H](c3ccccc3)N1[C@@H]2c1ccc(OCCO)cc1`
0.588

====

As shown below, each of these molecules has a reported composite z-score value.
# measurement description: probe aDKK1 binding to arrayed compounds – biochemical, biotinylated probe, 635/667 nm fluorescence, primary screen (AID 1099);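 note: score merges 667nm spot fluorescence with signal to noise across triplicate slides; reference of the scale not given here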
# measurement parameters: small-molecule microarray, higher = more signal

Reference set (3 entries):
molecule: CN(C)CCCNC(=O)[C@@]1(Cc2ccccc2I)c2ccccc2C(=O)N(Cc2ccccc2Cl)[C@H]1c1ccc(CO)cc1
composite z-score: 0.94
//
molecule: C/C=C/[C@@H](CCn1cc([C@H](O)c2ccccc2)nn1)[Si](C)(C)c1ccc(OC)cc1
composite z-score: -0.414
//
molecule: O=C1NC(=O)C2C1C=CC(C(O)CCc1ccccc1)N2Nc1ccccn1 (centres undefined)
composite z-score: 0.673

The record that follows has no composite z-score shown yet.
// query composite z-score value for entry `C=C(CCCC)/C(=C/C[C@H](OC(=O)c1ccncc1)c1ccc(CO)o1)c1cc(C(=O)OC)ccc1OC`
0.0946

====

# assay target: E3 ubiquitin-protein ligase XIAP (Homo sapiens)
# measurement description: small molecules binding XIAP protein – biophysical, small-molecule microarray, fluorescence 635 nm, primary screen (AID 1181);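 note: score merges 667 nm emission and signal to noise over triplicate slides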
# measurement parameters: higher = more signal
measured property: composite z-score
Keep the answer to the number alone.

Reference set (3 entries):
compound: C[C@@]1([C@@H](NC(=O)c2cccs2)c2ccc(-c3ccccc3)cc2)C[C@H]1C1CCCCC1
composite z-score: 0.246

compound: COC(=O)[C@]1(Cc2ccccc2CN=[N+]=[N-])N=C(c2ccc(OCCCO)cc2)O[C@@H]1c1ccccc1
composite z-score: -0.184

compound: CCCCCCCCCCC(O)C1C=CC2C(=O)NC(=O)C2N1Nc1ccccn1 (centres undefined)
composite z-score: 0.0153

// query composite z-score value for entry `CN(C)C(=O)[C@]1(Cc2ccccc2N=[N+]=[N-])N=C(c2ccc(OCCCO)cc2)O[C@@H]1c1ccccc1CN=[N+]=[N-]`
0.152

====

# measurement description: inhibition of PAO1 biofilm formation – strain PAO1, LB-PBS medium, absorbance 600 nm, primary screen (AID 1176); note: test concentration not given here
# measurement parameters: P. aeruginosa PAO1 growth/biofilm, A600, 12 h; higher = more signal
Label FALSE if z-score falls below 0.6; label TRUE in every other case.

For orientation, consider the following solved cases.
compound: O=C(N1CCOCC1)[C@@]1(CCS(=O)(=O)c2ccccc2)COC(c2ccc(OCCCO)cc2)=N1
class name: FALSE
//
compound: CC(=O)NCCCC[C@@H]1NC(=O)[C@@H]2C[C@H](C(=O)NCCCC[N+](C)(C)C)[C@H](c3cccc(OCCO)c3)N2C1=O
class name: TRUE
//
compound: CCOC(=O)C[C@H]1[C@H](OC(=O)c2cc3ccccc3oc2=O)[C@@H](NC(=O)c2ccc3ccccc3n2)c2cc(OCCCO)ccc2N1C(=O)c1ccc2ccccc2n1
class name: FALSE
//
compound: [N-]=[N+]=Nc1ccccc1[C@H]1OC(c2ccc(OCCCO)cc2)=N[C@@]1(Cc1ccccc1)C(=O)NCc1ccccc1
class name: FALSE
//
compound: C=CCOC(=O)[C@H]1[C@@H]2C(=O)O[C@@H](c3ccccc3)[C@@H](c3ccccc3)N2[C@@H](c2ccc(OCCOC(=O)[C@H]3C[C@H]4C(=O)N[C@@H](CCCCN(C)C)C(=O)N4[C@H]3c3ccc(O)cc3)cc2)[C@]12C(=O)Nc1ccccc12
class name: FALSE
//
compound: Cc1ccc(S[C@]2(C(=O)O)CC(=O)N(C3CCCCC3)[C@@H]2c2ccc(CO)cc2)cc1
class name: FALSE
//
compound: CC(C)C[C@@H]1NC(=O)[C@@]23C(=O)N[C@@H](Cc4ccccc4)C2[C@H](C)[C@@]2(C)O[C@H]2C3/C=C/C/C=C\CNC(=O)[C@@H]2CCCN2C1=O (stereo not given in full)
class name: FALSE
//
compound: COC(=O)c1c(CC[C@@H](CO)NC(=O)N[C@@H](C)Cn2cc(C3(O)CCCC3)nn2)oc(C(C)=O)c1C(=O)OC
class name: FALSE

# bool: z-score of `COC(=O)C(CC#Cc1ccc2c(c1)[C@]1(C(=O)N2)[C@H](c2ccc(O)cc2)N2[C@H](c3ccccc3)[C@H](c3ccccc3)OC(=O)[C@H]2[C@@H]1C(N)=O)C(=O)OC` >= 0.6
TRUE
